Let's look at some binders and their measured EC50.
measured_on: T1, recombinant C-terminal ApoE fragment L198-HIS (ApoE-L198-H299-10xHIS) (human, UniProt P02649 216-317)
T1 construct: also called L198-HIS fragment
method_notes: direct ELISA, L198-HIS coated at 0.1 µM

binder | EC50 / ng/mL
8B3, monoclonal anti-L198 antibody (antibody, IgG2b, V domains shown) VH: EVKVEESGGGVVQPGGSMKLSCLASGFTFRNYWMNWVRQSPEKGLEWVAQIRLKSDNYATRYAESVKGRFTISRDDSKSSVYLQMNNLRAEDTGTYYCSGHILLRYYALDFWGQGTSVTVSS VL: DIVLTQSQKFMSTSVGDRVSVTCKASQNVYTDVAWYQQKPGQSPKGMIYSASYRYSGVPDRFTGSGSGTDFTLKISNVQSEDLAEYFCQQYNSFPYTFGGGTKLEIK | 1.3
12B1, monoclonal anti-L198 antibody (antibody, IgG2c, V domains shown) VH: EVKLEESGGGLVQPGGSMKLSCVASGITFSKYWMNWVRQCPEKGLEWVAQIRLRSDNYATHYAESVKGRFTISRDDSKSSVYLQMNTLRAEDTGIYYCTHHYYGSSGYVDVWGTGTTVTVSS VL: DIVMTQSQKFMSTSVGDRVSVTCKASQNVGTNVAWYQQKPGQCPKGMILSASQRYSGVPDRFTGSGFGTEFTLTISNVQSEDLAEYFCQQYNSYPYTFGGGTKLERK | 8.7
6F4, monoclonal anti-L198 antibody (antibody, IgG1, V domains shown) VH: EVNLEESGGDLVQPGRSLKLSCVASGFTFSDYWMNWVRQSPEKGLEWVAQIRLKSDNYVTHYVESLKGRFTISRDDSRSCVYLQMNNLRAEDTGIYYCTGHILLRRRYFDVWGTGTTVTVSS VL: DIVMTQSQKFMSTSVGDRVSVTCEASQNVGTNVAWYQQKPGQSPKGLIYSASYRYSGVPDRFTGSGSGTDFTLTISTVQSEDLAEYFCHQFNTYPYTFGGGTTLEII | 18.5
15H11, monoclonal anti-L198 antibody (antibody, IgG1, V domains shown) VH: EVKLEESGGGLVQPGGAMKLSCVASGITFSNYWMNWVRQCPEKGLEWVAQIRLKSDNYATHYAESVKGRFTISRDDSKSSVYLQMNTLRAEDTGIYYCTHHYYGSSGYVDVWGTGTTVTVSS VL: DIVMTQSQKFMSTSVGDRVSVTCKASQNVGNNVAWYQKKPGQCPKGMILSASQRYSGVPDRFTGSGFGTEFTLIISNVQSEDLAEYFCHQYNSYPYTFGGGTKLERK | 3.6
